Quick reference for DC50 among some molecules
- system under test: Cbl-b (Homo sapiens, UniProt Q13191)
- Construct: Cbl-b-HiBit KI Jurkat Cells were purchased from Promega; host or cells: Cbl-b-HiBiT knock-in Jurkat cells
- Sequence (Q13191 whole entry): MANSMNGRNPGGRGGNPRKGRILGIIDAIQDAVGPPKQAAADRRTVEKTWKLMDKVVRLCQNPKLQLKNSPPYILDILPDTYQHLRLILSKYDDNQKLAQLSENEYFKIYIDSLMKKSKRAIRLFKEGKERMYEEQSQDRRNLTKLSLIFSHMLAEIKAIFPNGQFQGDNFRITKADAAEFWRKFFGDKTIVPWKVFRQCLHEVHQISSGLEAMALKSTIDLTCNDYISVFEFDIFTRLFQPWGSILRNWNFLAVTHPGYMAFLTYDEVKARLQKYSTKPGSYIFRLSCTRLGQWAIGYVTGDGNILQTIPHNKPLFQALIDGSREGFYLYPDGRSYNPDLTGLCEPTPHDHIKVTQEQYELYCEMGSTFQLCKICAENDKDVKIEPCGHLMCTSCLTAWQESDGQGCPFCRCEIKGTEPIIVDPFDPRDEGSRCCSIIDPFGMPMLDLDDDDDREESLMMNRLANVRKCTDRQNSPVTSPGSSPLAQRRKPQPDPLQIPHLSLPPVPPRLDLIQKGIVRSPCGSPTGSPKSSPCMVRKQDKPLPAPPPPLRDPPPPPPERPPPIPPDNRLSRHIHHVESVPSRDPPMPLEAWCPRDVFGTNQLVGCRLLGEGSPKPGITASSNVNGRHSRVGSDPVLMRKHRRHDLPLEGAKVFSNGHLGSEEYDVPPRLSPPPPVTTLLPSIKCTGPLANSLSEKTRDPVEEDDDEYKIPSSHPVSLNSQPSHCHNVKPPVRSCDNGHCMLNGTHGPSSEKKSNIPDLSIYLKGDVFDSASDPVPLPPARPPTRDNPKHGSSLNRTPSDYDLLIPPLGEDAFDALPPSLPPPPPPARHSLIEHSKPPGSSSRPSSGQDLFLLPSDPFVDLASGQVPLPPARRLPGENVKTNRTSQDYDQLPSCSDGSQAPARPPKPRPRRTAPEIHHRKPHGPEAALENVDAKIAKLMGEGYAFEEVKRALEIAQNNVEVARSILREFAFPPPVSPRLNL
- test: Cbl-b Degradation Method A (FACS, anti-Cbl-b antibody staining)
- Assay type: cell-based
- settings: Cbl-b-HiBit KI Jurkat Cells, incubated at least 20 hours; half maximal degradation; read-out: Cbl-b Degredation Method A IC50

>  <molecule>
Cc1cc(N2CCC(O[C@H]3CC[C@H](CN4CCC5(CC4)CN(c4cc6c(c(C(F)(F)F)c4)CN(c4cccc([C@]7(Cc8nncn8C)C[C@@H](C#N)C7)c4)C6=O)C5)CC3)CC2)c(F)c2c1C(=O)N(C1CCC(=O)NC1=O)C2 (some centres unmarked) [Example 187]

>  <system under test>
Cbl-b (Homo sapiens, UniProt Q13191)

>  <reported property>
DC50

>  <endpoint result>
5 to 50 nM

$$$$

Here is the next item to consider.
Inquiry: Entry under review: C[C@@H]1CN(C[C@H]2CC[C@H](OC3CCN(c4ccc5c(c4F)CN(C4CCC(=O)NC4=O)C5=O)CC3)CC2)CCN1Cc1cc2c(c(C(F)(F)F)c1)CN(c1cccc(C3(Cc4nncn4C)COC3)c1)C2=O (some centres unmarked) [Example 195] . Reported DC50?
Reply text: < 5 nM

* * *

- system under test: Cbl-b (Homo sapiens, UniProt Q13191)
- Construct: Cbl-b-HiBit KI Jurkat Cells were purchased from Promega; host or cells: Cbl-b-HiBiT knock-in Jurkat cells
- test: Cbl-b Degradation Method B (Nano-Glo HiBiT lytic detection)
- Type: cell-based
- settings: Cbl-b-HiBit KI Jurkat Cells, incubated at least 6-24 hours; maximum degradation observed; read-out: Cbl-b Degredation Method B Dmax (%)
# maps each entry to its Dmax

# example entries with known answers
>  <molecule>
Cn1cnnc1CC1(c2cccc(N3Cc4c(cc(CN5CCC[C@H](CN6CCN(C[C@H]7CC[C@@H](OC8CCN(c9ccc%10c(c9F)CN(C9CCC(=O)NC9=O)C%10=O)CC8)CC7)CC6)C5)cc4C(F)(F)F)C3=O)c2)CC1 (some centres unmarked)

>  <Dmax>
> 70%

$$$$
>  <molecule>
CC(C)n1c(=O)n(C2CCC(=O)NC2=O)c2cccc(N3CCC(O[C@H]4CC[C@H](CN5CCN(Cc6cc7c(c(C(F)(F)F)c6)CN(c6cccc([C@]8(Cc9nncn9C)C[C@@H](C#N)C8)c6)C7=O)C(C)(C)C5)CC4)CC3)c21 (some centres unmarked)

>  <Dmax>
35 to 70%

$$$$
>  <molecule>
Cn1cnnc1CC1(c2cccc(N3Cc4c(cc(CN5CCCC(N6CC7(CCN(c8ccc9c(c8)C(=O)N(C8CCC(=O)NC8=O)C9=O)CC7)C6)C5)cc4C(F)(F)F)C3=O)c2)COC1 (centres unmarked)

>  <Dmax>
35 to 70%

$$$$
>  <molecule>
CC1c2nc(N3CCC(O[C@H]4CC[C@H](CN5CCC6(CCN(c7cc8c(c(C(F)(F)F)c7)CN(c7cccc([C@]9(Cc%10nncn%10C)C[C@@H](C#N)C9)c7)C8=O)C6)C5)CC4)CC3)ccc2C(=O)N1C1CCC(=O)NC1=O (some centres unmarked)

>  <Dmax>
35 to 70%

$$$$
>  <molecule>
Cn1cnnc1C[C@]1(c2cccc(N3Cc4c(cc(N5CC6(CCN(CC7CCN(c8ccc9c(c8)C(=O)N(C8CCC(=O)NC8=O)C9=O)CC7)CC6)C5)cc4C(F)(F)F)C3=O)c2)C[C@H](C#N)C1 (some centres unmarked)

>  <Dmax>
35 to 70%

$$$$
>  <molecule>
Cn1cnnc1CC1(c2cccc(N3Cc4c(cc(N5CC6(CCN(CC7CCN(c8ccc9c(c8)CN(C8CCC(=O)NC8=O)C9=O)CC7)CC6)C5)cc4C(F)(F)F)C3=O)c2)COC1 (centres unmarked)

>  <Dmax>
35 to 70%

$$$$
>  <molecule>
COc1c(N2CCC(CN3CCC4(CC3)CN(c3cc5c(c(C(F)(F)F)c3)CN(c3cccc([C@]6(Cc7nncn7C)C[C@@H](C#N)C6)c3)C5=O)C4)CC2)ccc2c1CN(C1CCC(=O)NC1=O)C2=O (some centres unmarked)

>  <Dmax>
> 70%

$$$$
>  <molecule>
Cn1cnnc1CC1(c2cccc(NC(=O)c3cc(CN4CCC[C@H](CN5CCC(CN6CCN(c7ccc8c(c7)C(=O)N(C7CCC(=O)NC7=O)C8=O)CC6)CC5)C4)nc(C4CC4)n3)c2)COC1 (some centres unmarked)

>  <Dmax>
< 35%

$$$$

Inquiry: Quick one: Dmax for Cn1cnnc1CC1(c2cccc(N3Cc4c(cc(CN5CCN(c6ccc7c(c6)C(=O)N(C6CCC(=O)NC6=O)C7=O)CC5)cc4C(F)(F)F)C3=O)c2)COC1 (centres unmarked) ?
Reply text: > 70%

Inquiry: What measured Dmax goes with CC(C)n1c(=O)n(C2CCC(=O)NC2=O)c2ccc(N3CCC(O[C@H]4CC[C@@H](CN5CCN(C[C@H]6CCCN(Cc7cc(C(F)(F)F)c8cn(-c9cccc(C%10(Cc%11nncn%11C)COC%10)c9)nc8c7)C6)C(C)(C)C5)CC4)CC3)cc21 (some centres unmarked) ?
Reply text: > 70%

Inquiry: What does the data say about its Dmax? Entry: CC1c2nc(N3CCC(O[C@H]4CC[C@H](CN5CCC6(C5)CN(c5cc7c(c(C(F)(F)F)c5)CN(c5cccc([C@]8(Cc9nncn9C)C[C@@H](C#N)C8)c5)C7=O)C6)CC4)CC3)ccc2C(=O)N1C1CCC(=O)NC1=O (some centres unmarked)
Reply text: 35 to 70%

Inquiry: What measured Dmax goes with Cn1cnnc1C[C@]1(c2cccc(N3Cc4c(cc(CN5CCN(C[C@H]6CC[C@H](OC7CCN(c8ccc9c(c8)CC(=O)N9C8CCC(=O)NC8=O)CC7)CC6)CC5)cc4C(F)(F)F)C3=O)c2)C[C@H](C#N)C1 (some centres unmarked) ?
Reply text: > 70%

Inquiry: So what's the measured Dmax for this one? Cn1cnnc1C[C@]1(c2cccc(N3Cc4c(cc(CN5CCC[C@H](CN6CCN(C[C@H]7CC[C@H](OC8CCN(c9ccc%10c(c9F)CN(C9CCC(=O)NC9=O)C%10=O)CC8)CC7)CC6)C5)cc4C(F)(F)F)C3=O)c2)C[C@@H](C#N)C1 (some centres unmarked)
Reply text: 35 to 70%

Inquiry: Query: Dmax; subject: COc1c(N2CCC(O[C@H]3CC[C@H](CN4CCC5(CC4)CN(c4cc6c(c(C(F)(F)F)c4)CN(c4cccc(C7(Cc8nncn8C)COC7)c4)C6=O)C5)CC3)CC2)ccc2c1CN(C1CCC(=O)NC1=O)C2=O (some centres unmarked)
Reply text: > 70%

Inquiry: Looking for the measured Dmax of Cn1cnnc1CC1(c2cccc(N3Cc4c(cc(N5CCC[C@H](CN6CCC(CN7CCC(CN8CCN(c9ccc%10c(c9)C(=O)N(C9CCC(=O)NC9=O)C%10=O)CC8)CC7)CC6)C5)cc4C(F)(F)F)C3=O)c2)COC1 (some centres unmarked) , can you help?
Reply text: < 35%

Inquiry: Form field: reported Dmax of Cc1cc(N2CCC(O[C@H]3CC[C@@H](CN4CCN(C[C@H]5CCCN(Cc6cc7c(c(C(F)(F)F)c6)CN(c6cccc(C8(Cc9nncn9C)COC8)c6)C7=O)C5)C(C)(C)C4)CC3)CC2)c(F)c2c1C(=O)N(C1CCC(=O)NC1=O)C2 (some centres unmarked)
Reply text: > 70%

Inquiry: Recorded Dmax for Cn1cnnc1C[C@]1(c2cccc(N3Cc4c(cc(CN5CCN(C[C@H]6CC[C@H](OC7CCN(c8ccc9c(ccn9C9CCC(=O)NC9=O)c8)CC7)CC6)CC5)cc4C(F)(F)F)C3=O)c2)C[C@H](C#N)C1 (some centres unmarked) , please?
Reply text: 35 to 70%
